Origin of the recorded values: patent US5679695A

Experiment: Dye conversion (MTT formazan) assay of drug-induced cytotoxicity
Format: cell-based
Details: mouse, sc-1 cells; 1 × 10^-7 M; read-out: % Reduction
assayEndpoint: cytotoxicity at 72 h, 0.1 µM (%)

> print(dat)
                            substancesmiles                 assayendpoint  reading
1  Cc1ccc(S(=O)(=O)c2ccccc2[N+](=O)[O-])cc1  cytotoxicity at 72 h, 0.1 µM        8
2     O=[N+]([O-])c1ccccc1S(=O)(=O)c1ccccc1  cytotoxicity at 72 h, 0.1 µM        0

====

Experiment: XTT toxicity control, uninfected culture, CEM-V
Type: cell-based
Settings: human, cem-v cells, 6.00 × 10^-7 Molar, read-out: Uninfected culture response
assayEndpoint: viability at 0.6 µM (%)

> print(dat)
                                   compound  reading
1  O=[N+]([O-])c1ccccc1S(=O)(=O)c1ccccc1 [Compound 1, 1-Nitro-2-(phenylsulfonyl)benzene]     90.4

====

Test: XTT toxicity control, uninfected culture, CEM-Z
Format: cell-based
Conditions: human, cem-z cells, 1.79 × 10^-6 Molar, read-out: Uninfected culture response
assayEndpoint: viability at 1.79 µM (%)

> print(dat)
                         substancesmiles         assayendpoint  reading
1  O=[N+]([O-])c1ccccc1S(=O)(=O)c1ccccc1  viability at 1.79 µM     97.9

====

Assay: Dye conversion (MTT formazan) assay of drug-induced cytotoxicity
Assay type: cell-based
Settings: mouse, sc-1 cells; 1 × 10^-6 M; read-out: % of Control
assayEndpoint: viability at 72 h, 1 µM

> print(dat)
                                   compound  reading
1  O=[N+]([O-])c1ccccc1S(=O)(=O)c1ccccc1 [Compound 1, 1-Nitro-2-(phenylsulfonyl)benzene]      98%
2  Cc1ccc(S(=O)(=O)c2ccccc2[N+](=O)[O-])cc1 [Compound 2]      92%

====

Test: Dye conversion (MTT formazan) assay of drug-induced cytotoxicity
Format: cell-based
Details: mouse, sc-1 cells; 1 × 10^-8 M; read-out: % Reduction
assayEndpoint: cytotoxicity at 72 h, 0.01 µM (%)

> print(dat)
                                   compound                  assayendpoint  reading
1  O=[N+]([O-])c1ccccc1S(=O)(=O)c1ccccc1 [Compound 1, 1-Nitro-2-(phenylsulfonyl)benzene]  cytotoxicity at 72 h, 0.01 µM        1
2  Cc1ccc(S(=O)(=O)c2ccccc2[N+](=O)[O-])cc1 [Compound 2]  cytotoxicity at 72 h, 0.01 µM        9

====

Assay: Dye conversion (MTT formazan) assay of drug-induced cytotoxicity
Type: cell-based
Conditions: mouse, sc-1 cells; 1 × 10^-5 M; read-out: % of Control
# maps each entry to its viability at 72 h, 10 µM
assayEndpoint: viability at 72 h, 10 µM (%)

> print(dat)
                            substancesmiles             assayendpoint  resultunits  reading
1  Cc1ccc(S(=O)(=O)c2ccccc2[N+](=O)[O-])cc1  viability at 72 h, 10 µM            %       92
2     O=[N+]([O-])c1ccccc1S(=O)(=O)c1ccccc1  viability at 72 h, 10 µM            %       97
